# System: lesions of the mucous membrane of the stomach
# protocol: Ethanol test (mucosa-protective activity)
# Type: in vivo
# reported conditions: Rattus norvegicus; male rats, oral 30 min before absolute ethanol; dosage reducing number of lesions by 50%; read-out: Ethanol Test ID 50
property name: ED50 (mg/kg)
Response body: numeric value in mg/kg, unit text excluded.

Look over these answered cases.
COC(=O)C#CC(=O)c1ccc(F)cc1 [M, methyl 3-(4-fluorobenzoyl)propiolate] : 4.2
CCOC(C)OCC#CC(=O)c1ccc(OC)c(OC)c1OC (stereo not drawn) : 0.8
O=C(C#CCO)c1ccc(Cl)cc1 : 1.2
COCCOCCOC(=O)C#CC(O)c1cc(OC)c(OC)c(OC)c1 (stereo not drawn) : 4
COc1ccc(OC)c(C(=O)C#CC(=O)O)c1 : 1.9
COc1ccc(C(=O)C#CCO)cc1 : 1.2

Exercise: What is its ED50 for lesions of the mucous membrane of the stomach? Entry: COc1cc(C(=O)C#CCO)cc(OC)c1OC
Solution: 1.9

Exercise: Find ED50 (lesions of the mucous membrane of the stomach) for the entry COc1cc(C(=O)C#CC(C)O)cc(OC)c1OC (stereo not drawn)
Solution: 1.2

Exercise: Which ED50 is reported with lesions of the mucous membrane of the stomach for this entry: COc1ccc(C(=O)C#CCO)c(OC)c1OC ?
Solution: 0.8
